B1: FEM1A (parent)
chain: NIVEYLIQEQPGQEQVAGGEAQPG

- Variants of: B1
- Assay Text: protein stability index of a GFP-peptide fusion (GPS, HEK-293T) (PSI 1-6); higher = more stable;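 note: lentivirally expressed fusions sorted by FACS into six bins by GFP to DsRed ratio, PSI derived from sequencing read proportions per bin multiplied by bin number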
- Condition Label: c terminus: a fixed tail appended
Param threshold (4) applies to protein stability index; output Criterion met when value >= threshold, Criterion not met when value < threshold.

Illustrative cases are given below, each with its answer.
Q15P = Criterion met
E20Y = Criterion not met
N1L = Criterion not met
P11D = Criterion met

Can E4I be said to have protein stability index at or above 4?
Criterion not met
